Target: T1, human PLD4 (phospholipase D4) protein (UniProt Q96BZ4 1-506)
T1 chain: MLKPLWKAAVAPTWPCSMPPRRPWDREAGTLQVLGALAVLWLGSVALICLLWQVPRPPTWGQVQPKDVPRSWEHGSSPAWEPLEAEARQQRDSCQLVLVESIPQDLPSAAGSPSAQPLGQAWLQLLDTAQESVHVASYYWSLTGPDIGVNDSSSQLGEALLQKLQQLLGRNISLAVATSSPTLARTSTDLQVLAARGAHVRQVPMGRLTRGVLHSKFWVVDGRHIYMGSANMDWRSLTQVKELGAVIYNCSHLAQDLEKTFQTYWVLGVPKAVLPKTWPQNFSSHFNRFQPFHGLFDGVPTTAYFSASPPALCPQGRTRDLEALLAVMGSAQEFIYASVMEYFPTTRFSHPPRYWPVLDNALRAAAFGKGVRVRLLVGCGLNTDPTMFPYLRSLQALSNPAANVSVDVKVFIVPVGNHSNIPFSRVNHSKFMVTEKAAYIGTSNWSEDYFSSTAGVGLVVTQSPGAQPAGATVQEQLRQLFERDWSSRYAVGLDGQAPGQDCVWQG
Experiment: binding to human PLD4-CT125 stable cells; apparent Kd

{"binder": "anti-PLD4 mouse 13H11 antibody (antibody, mouse IgG2b, V domains shown, Tested as hybridoma culture supernatant and as purified antibody; also called mp13H11 (hybridoma)) VH: DVQLQESGPGLVKPSQSLSLTCSVTGYSISSHYYWSWIRQFPGNRLEWMGYISYDGSNNYNPSLKNRISITRDTSKNQFFLKLNSVTTEDTATYNCAREGPLYYGNPYWYFDVWGAGTTVTVSS VL: DIQMTQTTSSLSASLGGSVTISCRASQDIDNYLNWYQQKPDGTVKLLIYYTSRLHSGVPSRFSGSGSGTDYSLTISNLEQEDIATYFCQQFNTLPRTFGGGTKLEIKR", "Kd, nM": 0.057}
{"binder": "anti-PLD4 mouse 8C11 antibody (antibody, mouse IgG2b, V domains shown, Tested as hybridoma culture supernatant and as purified antibody) VH: QVQLQQSGAELVKPGASVKLSCKASGYTFTSYYLYWVRQRPGQGLEWIGLINPTNSDTIFNEKFKSKATLTVDKSSSTAYMQLSSLTSEDSAVYYCTREGGYGYGPFAYWGQGTLVTVSA VL: DVVMTQTPLSLPVSLGDQASISCTSSQTLVHSNGNTYLHWYLQKPGQSPKLLIYKVSNRFSGVPDRFSGSGSGTDFTLKISRVEAEDLGVYFCSHSTHVPFTFGSGTKLEIKR", "Kd, nM": 0.085}
{"binder": "anti-PLD4 mouse 10C3 antibody (antibody, mouse IgG2a, V domains shown, Tested as hybridoma culture supernatant and as purified antibody) VH: EVQLVESGGDLVRPGGSLKLSCAASGFSFSSYGMSWFRQTPDKRLEWVATISSGGSYIYYPESVKGRFTISRDNARNILYLQMSSLKSEDTAMYYCVRLYGGRRGYGLDYWGQGTSVTVSS VL: EIVMTQAAFSNPVTLGTSASISCRSSKSLLHSDGITYLYWYLQKPGQSPQLLIYQMSNLASGVPDRFSSSGSGTDFTLRISRVEAEDVGVYYCAQNLELYTFGGGTKLEIKR", "Kd, nM": 0.228}
{"binder": "anti-PLD4 mouse 5B7 antibody (antibody, V domains shown, Tested as hybridoma culture supernatant and as protein A purified antibody; also called mp5B7 (hybridoma)) VH: EVQLQQSGPELVKPGASVKISCKASGYTFTDYNLHWVKQSHGKSLEWIGYIYPYNGNTGYNQKFKRKATLTVDNSSGTVYMELRSLTSEDSAVYYCARGGIYDDYYDYAIDYWGQGTSVTVSS VL: DIQMTQSPASLSVSVGETVAITCRASENIYSHIAWYQQKEGKSPQRLVYGATNLAHGVPSRFSGSGSGTQYSLKINSLQSEDFGSYYCQHFWGTPWTFGGGTKLEIKR", "Kd, nM": 0.056}
{"binder": "anti-PLD4 mouse 7B4 antibody (antibody, mouse IgG2b, V domains shown, Tested as hybridoma culture supernatant and as purified antibody; also called mp7B4 (hybridoma)) VH: EVQLQQSGPELVKPGASVKISCKASGYTFTDYNLHWVKQSHGKSLEWIGYIYPYNGNTGYNQKFKRKATLTVDNSSGTVYMELRSLTSEDSAVYYCARGGIYDDYYDYAIDYWGQGTSVTVSS VL: DIQMTQSPASLSVSVGETVAITCRASENIYSHIAWYQQKEGKSPQRLVYGATNLAHGVPSRFSGSGSGTQYSLKINSLQSEDFGSYYCQHFWGTPWTFGGGTKLEIKR", "Kd, nM": 0.087}
{"binder": "anti-PLD4 mouse 11G9.6 antibody (antibody, V domains shown, Tested as hybridoma culture supernatant and as purified antibody; also called mp11G9.6; mp11G9.6 antibody) VH: QVQLQQPGAELVKPGTSVKMSCKASGYTFTSYWMHWVKQRPGQGLEWIGDIYPGSDSTNYNEKFKSKATLTVDTSSSTAYMQLSSLTSEDSAVYYCARGGWLDAMDYWGQGTSVTVSS VL: DIQMTQTTSSLSASLGDRVTISCRASQDISNYLNWYQQKPDGTVKLLIYYTSRLHSGVPSRFSGSGSGTDYSLTISNLEQEDIATYFCQQGNTLPWTFGGGTKLEIKR", "Kd, nM": 0.058}
{"binder": "anti-PLD4 mouse 11D10 antibody (antibody, mouse IgG2b, V domains shown, Tested as hybridoma culture supernatant and as purified antibody) VH: EVQLVESGGDLVRPGGSLKLSCAASGFSFSSYGMSWFRQTPDKRLEWVATISSGGSYIYYPESVKGRFTISRDNARNILYLQMSSLKSEDTAMYYCVRLYGGRRGYGLDYWGQGTSVTVSS VL: EIVMTQAAFSNPVTLGTSASISCRSSKSLLHSDGITYLYWYLQKPGQSPQLLIYQMSNLASGVPDRFSSSGSGTDFTLRISRVEAEDVGVYYCAQNLELYTFGGGTKLEIKR", "Kd, nM": 0.192}
